# System: OVCAR-5
# testDetails: NCI tumour cell line growth inhibition, 48 h
Calls of active or inactive are those of the source. No stated cut-off is given here; in the data, active = GI50 up to about 1.1 µM and inactive = higher.
recordedMetric: GI50

Below, 3 compounds whose answers are already recorded.
{"compound": "CC1(C)C(=O)C(=Cc2ccco2)C1=O", "testedOn": "OVCAR-5", "GI50": "> 100 µM (inactive)"}
{"compound": "CCCC(=O)N(C)/N=N/c1ccc(C(=O)OCC)cc1", "testedOn": "OVCAR-5", "GI50": "> 100 µM (inactive)"}
{"compound": "O=C(O)[C@H]1NC[C@H]2C(Br)=NO[C@@H]12", "testedOn": "OVCAR-5", "GI50": "> 100 µM (inactive)"}

// below: GI50 requested for another compound
Tell me its GI50 given O=C1CC(c2cccc([N+](=O)[O-])c2)C2(C(=O)NC(=O)NC2=O)C(c2cccc([N+](=O)[O-])c2)C1 (stereo unspecified) as the entry. > 100 µM (inactive)
